Field: 8OG:A repair function score. Provide a value for each of the variants that follow.
B1: library; numbered along this chain (parent)
chain: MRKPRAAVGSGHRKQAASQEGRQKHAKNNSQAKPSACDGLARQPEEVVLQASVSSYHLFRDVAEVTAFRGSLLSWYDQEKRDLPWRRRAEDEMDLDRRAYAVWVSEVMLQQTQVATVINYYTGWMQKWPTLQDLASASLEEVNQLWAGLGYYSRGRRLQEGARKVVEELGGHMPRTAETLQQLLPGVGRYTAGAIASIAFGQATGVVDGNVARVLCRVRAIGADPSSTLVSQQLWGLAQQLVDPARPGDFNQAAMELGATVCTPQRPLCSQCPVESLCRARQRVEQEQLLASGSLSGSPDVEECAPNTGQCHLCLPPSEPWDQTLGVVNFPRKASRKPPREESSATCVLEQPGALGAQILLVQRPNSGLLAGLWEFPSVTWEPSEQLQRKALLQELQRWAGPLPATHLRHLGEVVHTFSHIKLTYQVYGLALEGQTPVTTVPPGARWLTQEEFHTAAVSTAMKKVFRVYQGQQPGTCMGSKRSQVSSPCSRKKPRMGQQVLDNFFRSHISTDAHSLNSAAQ

variants of: B1; assay: 8OG:A repair function score (normalized; synonymous = 0, nonsense = -1) (normalized log-likelihood score); higher = more repair activity (WT-like); conditions: with 8OG:A DNA repair reporter (GFP) in HEK-293 MUTYH KO cells;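 further: cells sorted at 72 h after reporter transfection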

Param item = "L501K" ; retrieve measured 8OG:A repair function score. -0.0877

Consider the variant "L403V" and give its measured 8OG:A repair function score. 0.058

Param item = "P185N" ; retrieve measured 8OG:A repair function score. -0.12

Report 8OG:A repair function score for "W146D" please. -1.2

# 8OG:A repair function score lookup, item "L184C" -0.317
